- Subject Of Test: Histone deacetylase (Homo sapiens) (UniProt Q13547+O15379+Q9UBN7+Q92769+Q9UQL6+Q8WUI4+Q9BY41+Q96DB2+P56524+Q9UKV0+Q969S8)
- Condition Description: HeLa, at 1 µM
- Description: Inhibition of HDAC in human HeLa cell nuclear extract using fluor de Lys as substrate at 1 uM after 15 mins by fluorimetric analysis
Assay Metric: inhibition (%)
Report only the number, with the unit % understood.

Molecule Smiles | Result Unit | inhibition
O=C(CCCCCCOc1cccc(-c2nc(N3CCOCC3)c3sccc3n2)c1)NO | % | 76.8
O=C(CCCCCOc1cccc(-c2nc(N3CCOCC3)c3sccc3n2)c1)NO | % | 18.7

Please examine the following record next.
q: Name the reported inhibition value associated with the molecule O=C(CCCCCCOc1ccc(-c2nc(N3CCOCC3)c3sccc3n2)cc1)NO
a: 61.7
